# z-score annotations
test: survival rescue of mitochondrial mutant cells in low glucose, primary screen, MELAS cybrids, Rieske KO mouse fibroblasts, CellTiter-Glo (AID 1508586); settings: MELAS cybrid survival, CellTiter-Glo 48 h, hits give high values;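 also: test concentration not given here; z relative to plate mean and SD of compound and empty wells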
// response body must contain only the number

[[record]]
molecule = "O=C1NC(=O)C(c2cccc([N+](=O)[O-])c2)=C1Nc1cc(Cl)c(O)c(Cl)c1"
result_type = "z-score"
observed = -0.803

[[record]]
molecule = "Clc1ccc(CNc2nccc(-c3cnn4ncccc34)n2)cc1"
result_type = "z-score"
observed = 0.484

[[record]]
molecule = "CN(C)C(=O)O[C@@H]1CN[C@@H](C#Cc2cc3ncnc(Nc4ccc(OCc5cccc(F)c5)c(Cl)c4)c3s2)C1"
result_type = "z-score"
observed = 0.394


# molecule Cn1cc(C2=C(c3cn(CCCSC(=N)N)c4ccccc34)C(=O)NC2=O)c2ccccc21 ; its z-score = 3.84

The molecule listed as Nc1ccc(C#Cc2cncnc2Nc2ccc(OCc3cccc(F)c3)c(Cl)c2)cc1 has a reported z-score of -0.813
